Assay: yeast display, Sf9 membrane polyspecificity reagent, FACS + sequencing; frameworks hold sequencing errors
quantity-name: polyreactivity (PSR sort gate)

Below are worked cases with known answers.
QVQLVESGGGLVQAGGSLRLSCAASGLIFGRNAMGWYRQAPGKERELVAAISWSGGSTYYADSVKGRFTISRDNAKNTVYLEMKSLKPEDTAVYYCYRYRYYGSEDDYWGQCTQVTVSS ... high polyreactivity
QVQRVESGGGLVQAGGSLRLTCAASGITFFVYAMGCYRQAPGKERELVATINWSGASTYYADSVKGRFTISRDNAKNSVYLQMNSLKPEDTAVYYCAKDGHYPLVYLAFDYWGQGTQVTVSS ... low polyreactivity
QVQLVESGGGLFQAGGRLLLSCAASGRIFTYNTRGWYRQAPGKEREFVAAISSSSVSTYYADSVKGRITISRDNAKYTVYLQMNCLKPEDTAVYYCAAKRVGYHIGYVYPYGYWGQGTQVTVSS ... high polyreactivity
QVHLVESGGGLVQAGGSLRLSLAASGRIFGGYAMGWYRQAPGKERELVAGITNTGDTYYADSVKGRFTISRDNAKNNVYLQMNSLKPEDTAVYYCNAEGDKRRDRYDYWGQGTQVTVSS ... low polyreactivity

Lab note: next sequence to report on.
query: Quick one: polyreactivity (PSR sort gate) for `QVQLVESGGGLVKAGGSLRLSCAASGSIFSNNAMGWYRQAPGKEREFVAAIRGRGTRTYYADSVKGRFTISRDNAKNTVYLQMNSLKPEDTAVYYCAKYPFQPRDLQFNYWGQGTQVTVSS` ?
result: high polyreactivity

----------
Assay: yeast display, Sf9 membrane polyspecificity reagent, FACS + sequencing; frameworks hold sequencing errors
quantity-name: polyreactivity (PSR sort gate)

QVQLVESGGGLVQAGGSLRLCCAASGLTFAYYDMGWYRQAPGKERELVAAITSGGTTNYADSVKGRFTISRDNAKNTVYLQMNSLKPEDNAVYYCATDSWYGSWKYDYWGQGTQVTLSS ... low polyreactivity
QVQHVESGGGLVQAGGSLRLSCAASGLIFVRYAMGWYRQAPGKERELVATITWSGGTTYADSVKGRFTISRDNAKNTVYLQMNSLKPEDTAVYYCAVEWPAWTDSDYPVGGHAFGYWGQGTQVTVSS ... low polyreactivity
QVQLVESGGGLVQAGGSLLLSCAASGRTFTGYAMGGYRQAPVKERELVAAISASGGSTYYADSVKGRFTISRDNAKNTVYLQMNSLIPEDTAVYYCAAETWYSVLWEEGYDYWGQGTQVTVSS ... low polyreactivity

----------
Assay: yeast display, Sf9 membrane polyspecificity reagent, FACS + sequencing; frameworks hold sequencing errors
quantity-name: polyreactivity (PSR sort gate)

Below are worked cases with known answers.
QVQLVESLGGLVQAGGRLRLSSAASGLIFPRNAMGWYRQAPGKERELVAVISRSGTTTYYADSVKGRFTISRDNAKKTVYFQMNSLIPEDTAVYYCASAPSHVYRARFYYWGQGTQVTVSS ... high polyreactivity
QVQLVESGGGLVQAGGSLRLSCASSGGTLFQNAMGWYRQAPGKESELVATIRVSGGITYYADSVKGRFTISRDNAKNTVYFQMNSLNPEDTAVYYCAKDSADSRAVGDVMTFDYWGQGTQVTVSS ... low polyreactivity
QVQLQESGDGLLQAVGSLRLSCAASGYISGYYYMGWYRQAPGKERELVAGIDAFGSSTNYADCVKGRFTISRDNGKNTVYLQMNSLKPEDTAVYYCAARPDGDRLFSYWGQGTQVTVSS ... low polyreactivity
QVHLVESGGGLVQAGGSHRLSCAASGSIFRYNAMGWYRQAPGKEREFVAIISYSGVRTYYADSVKGRFTISRDNAKNTVYLEMNSLKPEDTAVYYCAADFKQKGHRTRTTYWGQGTQVTVSS ... high polyreactivity
QVQLEESRGGLVQAGGSLRLSCAASGYTLYEYAMGWYRQAPGKERELDAAITRSGGSTYYADSVKGRFTISRDNAKNTVYLQMNSLKPEDTAVFYCNADIYSRHTVGGYYYWGQGTQVTVSS ... high polyreactivity

query: Quick one: polyreactivity (PSR sort gate) for `QVQLVESGGGLVQAGGSLRLSCAASGRTFVAKTMGWYRQAPGKERELVAAISSSGGSTYYADSVKGRFTISRDNAKNTVYLQMNSLKPEDTAVYYCAKTHSGWWRYGYWGQGTQVTVSS` ?
result: high polyreactivity

----------
Experiment: yeast display, Sf9 membrane polyspecificity reagent, FACS + sequencing; frameworks hold sequencing errors
quantity-name: polyreactivity (PSR sort gate)

QVQLVESGGGLVQAGGSLRLSCAASGRIFGSYAMGWYRQAPGKERELVASISGSGTSTYYADSVKGRFTISRDNAKNTVYLQMNSLKPEDTAVYYCARYVRYYPSKFYYWGQGTQVTVSS ... high polyreactivity
QVQLVESGGGLVQAGGSLRLSCAASGLTFGRNVMGWYRQAPGKERELVAAISWRGDSTYYADSVKGRFTISRDNAKNTGYLQMNSLKPEDTAVYYCAVRYYRGSVASGSDYWGQGTQVTVSS ... high polyreactivity

----------
Assay: yeast display, Sf9 membrane polyspecificity reagent, FACS + sequencing; frameworks hold sequencing errors
quantity-name: polyreactivity (PSR sort gate)

Below are worked cases with known answers.
QVQLVESGGGLVQEGDSLRLSCAASGIIFLWYTLGLYRPAPGKERELVATISWGGGSTYADSVKGRFTISRDNAKNTVYLQMNSLKPEDTAVYYCAADNRYFRGQAYDYWGQGTQVTVSS ... low polyreactivity
QVQLVESGGGLVQAGGSLRLSCAASGFIFHLYGMGWYRQATGKERELVAAISSGGRTYYADSVKGRFTISRDNAKNTVYLQMNSLKPEDTAVYYCAVYVAYLYSYYYWGQGTQVTVSS ... low polyreactivity
QVQLVESGGGLVQAGGILRLSCAAPGSTFRKCAMGWYRQAPGKERELVAAISRGGTSTYYADSVKGRFTISRDNAKNTVYLQMNSLKPEDTAVYSCRYFRYSYGTKYDYWGQGTQVTVSS ... high polyreactivity
QVQLVESGGGLVQAGGSLRLSCAASGRTFYVNAMGWYRQAPGKEMELVAAITNGGRTNYADSVKGRFTISRDNAKNTVYLQMNSLKPEDTAVYYCNKVSLRTQSAQFHYWGQGTQVTVSS ... high polyreactivity
QVQLLESGGGLVQAGGSLRLSCAASGSTFDRYAMGWNRQAPGKEREFVAAITWGGGSTYYADSVKGRFTISRDNAKNTVYLKFNSLKPEDTAVYYCATRYGASFGYWVQGTQVTVSS ... low polyreactivity

query: Quick one: polyreactivity (PSR sort gate) for `QVQLVESGGGLVQAGGSLRLSCAASGSTFTLYAMGWYRQAPGKERELVATITGSGGSTNYADSVKGRFTISRDNAKNTVDLQMNSLKPEDTAVYYCAKRVQQSTWYGYGIGYEYWGQGTQVTVSS` ?
result: high polyreactivity

query: Quick one: polyreactivity (PSR sort gate) for `QVQLVESGGGLVQAGGSLRLSCAASGNTLVYYAMGWYRQAPGKERELVADISSSGGITYYADSVKGRFTISRDNAKNTVYLLMNSLKPVDTAVYYCAVDYPLYYWYLYNYWGQGTQVTVSS` ?
result: low polyreactivity

query: Quick one: polyreactivity (PSR sort gate) for `QVQLVESGGGLVQAGGSLRLSCAASGFIFDPYAMGWYRQAPGTERELVASINTRGDRTSYADSVKGRFTISRDNAKNTVYLQMNSLKPEDTAVYYCNADAVDQVGPDDDYWGQGTQVTVSS` ?
result: low polyreactivity

query: Quick one: polyreactivity (PSR sort gate) for `QVQLVESGGGLVQAGGSLRLSCAASGRNFARYVMGWYSQAPGKERELVASISNSGGSTYYADSVKGRFTISRDNAKNTVYLQMNSLKPEDTAVYYCARRYYYYTSYRYDYWGQGTQVTVSS` ?
result: high polyreactivity

query: Quick one: polyreactivity (PSR sort gate) for `QVQLVESGGGLVQAGGSLRLSCAASGRIYGDNTMGWYRQAPGKEREFVAAISFIGGSTYYADSVKGRFTISRDNAKNTVYLQMNSLKPEDTAVYYCATVERWTYWFVGYDYWGQGTQVTGSS` ?
result: high polyreactivity

----------
Experiment: yeast display, Sf9 membrane polyspecificity reagent, FACS + sequencing; frameworks hold sequencing errors
quantity-name: polyreactivity (PSR sort gate)

Below are worked cases with known answers.
QVQLVESGGGIVQAGGSLRLRCAASVRIFPCNTMGWYRQAPGKERELVAGINNGDRTYYADSVKGRFTISRDYAKNTVYLQMNILKPEDTAVYYCAADYVYFYFYGYDSWGQRTQVTVSS ... low polyreactivity
QVQLVESGGGLVQAGGSLRLSCAASGSTFRTYTMGWYRQAPGKERELVAAGGGTYYADSVKGRFTISRDNAKNTVYLQMNSLKPEDTAVYYCAAGLPIHGLRGYEYDYWGQGTQVTVSS ... low polyreactivity
QVQLVESGGGLVQAGGSLRLSCAASGRIDHNAMDWYRQAPGKERELVAAITWSGGGTYYADSVKGRFTISRDNAKNTVYLQMNSLKPEDTAVYYCNVRRAFSGWRGYDYWGQGTQVTVSS ... high polyreactivity
QFQLVESGGGLVQEGGSLRLSCAASGFTFYYYTMGWYRQAPGKERELVAAITWRGGSTNYADSVKGRFTISRDNAKNTVYLQMNSLKPEDTAVYYCAAVTYWFWPGMDYWGQGTQVTVSS ... low polyreactivity

Lab note: next sequence to report on.
query: Quick one: polyreactivity (PSR sort gate) for `QVHLVESGGGLVQAGGSLRLSCAASGSTIDRYAMGWYRQAPGKERELVASISKRGGSTYYADSVKGRFTISRDNAKNTVYLQMNSLKPEDTAVYYCAAKWASQYDYWGQGTQVTVSS` ?
result: high polyreactivity

// data source = the nanobody polyreactivity screen of Harvey et al. (2022)
